The measurements presented in this section are drawn from patent US11952365B2.

Tested on: SARS-CoV-2-GHB-03021/2020
experimentNotes: microbe, parasite or virus in culture
Assay type: cell-based
conditionLabel: Severe acute respiratory syndrome coronavirus 2, Vero C1008, 96 h; read-out: VeroE6 + CP (EC50)
Catalogue of EC50 values
metricName: EC50

compound	metricName	reading
COc1cccc2[nH]c(C(=O)N3C[C@@H]4CCC[C@@H]4[C@H]3C(=O)N[C@@H](CN3CCCNC3=O)C(=O)C(=O)NC3CC3)cc12 [Compound 118]	EC50	> 50 µM
COc1cccc2[nH]c(C(=O)N3CCC4(CC4)C[C@H]3C(=O)N[C@@H](C[C@@H]3CCNC3=O)C(=O)C(=O)NC3CC3)cc12 [Compound 179]	EC50	10 to 100 µM
O=C1NCC[C@H]1C[C@H](NC(=O)[C@@H]1[C@H]2CCC[C@H]2CN1C(=O)c1cc2c(C(F)(F)F)cccc2[nH]1)C(=O)CO [Compound 63]	EC50	< 1 µM
COc1cccc2[nH]c(C(=O)N3C[C@]4(C[C@H]3C(=O)NC(C=O)C[C@@H]3CCCNC3=O)CC4(F)F)cc12 (stereo partly drawn) [Compound 29]	EC50	1 to 10 µM
COc1cccc2[nH]c(C(=O)N3C[C@@H]4CCC[C@@H]4[C@H]3C(=O)N[C@@H](C[C@@H]3CCNC3=O)C(=O)C(=O)N[C@H]3CCOC3)cc12 [Compound 103]	EC50	10 to 100 µM
COc1cccc2[nH]c(C(=O)N3C[C@@H]4CCC[C@@H]4[C@H]3C(=O)N[C@H](C=O)C[C@@H]3CCNC3=O)cc12 [Compound 14A]	EC50	10 to 100 µM
